Exercise: for every item that follows, state its recorded EC50.
System: MT4
ASSAY PROTOCOL: Effective concentration required to achieve 50% inhibition of HIV-1 IIIB multiplication in hT4 lymphoblastoid MT-4 cells using MTT assay
Type: functional, cell-based
TEST PARAMETERS: Homo sapiens

Could you please provide reported EC50 for Cc1cn(C2CC(N=[N+]=[N-])C(CO)O2)c(=O)n(CCC(=O)NCCCCCCCCCCN)c1=O (centres undefined) ? Thanks! > 100 µM

Could you please provide reported EC50 for [N-]=[N+]=NC1CC(n2cc(CCC(=O)NCCCCCCCCCCN)c(=O)[nH]c2=O)OC1CO (centres undefined) ? Thanks! > 100 µM

Could you please provide reported EC50 for COC(=O)CCCNC(=O)CCc1cn(C2CC(N=[N+]=[N-])C(CO)O2)c(=O)[nH]c1=O (centres undefined) ? Thanks! > 100 µM

Could you please provide reported EC50 for CCc1c(Sc2cc(C)cc(C)c2)n(CCCCC(=O)NCCCCNC(=O)CCc2cn(C3CC(N=[N+]=[N-])C(CO)O3)c(=O)[nH]c2=O)c(=O)[nH]c1=O (centres undefined) ? Thanks! > 10 µM
